# system_under_test: T1, human guanylyl cyclase C (GCC), as used in the Octet binding assay (human, UniProt P25092 24-430, limits assumed)
# T1 construct: also called STAR; GUC2C
# procedure_details: Octet BLI, 1:1 model
pKd: −log10 of the molar value.
Mark Not satisfied for pKd values under 8, and Satisfied for everything at or above.

Worked set:
INSERT INTO assay_data (binder, class_assignment) VALUES
  ('V48 anti-GCC single domain VH antibody (VHH, Human heavy chain variable single domain antibody (VH only), tested as recombinant purified VH; No tags are stated) VHH: EVQLVESGGGLVQPGGSLRLTCAASGFTFSRYWMTWVRQAPGKGLEWVAKIRHDGGEKYYPDSVKGRFTVSRDNAKNSLYLQMDNLRAEDTAMYYCTRDYNKDLWGQGTLVTVSS', 'Satisfied'),
  ('V1 anti-GCC single domain VH antibody (VHH, Human heavy chain variable single domain antibody (VH only, no light chain), tested as recombinant purified VH; also called V1 VH) VHH: QVQLQESGPGLVKPSETLSLTCTVSGASISHYYWSWFRQPAGKGLEWIGRIYPSGSTSYNPSLKSRVAMSVDTPKNQFSLNLSSVTAADTAVYYCARDRSTGWSEWNSDLWGRGTLVTVSS', 'Satisfied');

Proceed to the following item.
Data request: State whether the measured pKd reaches 8, counting equality as reaching it, for V36 anti-GCC single domain VH antibody (VHH, Human heavy chain variable single domain antibody (VH only), tested as recombinant purified VH; No tags are stated) VHH: EVQLVESGGGLAQPGGSLRLSCAASGFTFSRYWMTWVRQAPGGRLEWVAKIKYDGSEKYYADSVKGRFTISRDNAKNSLYLQMDSLRAEDTAVYYCTRDYNKDYWGQGTLVTVSS
Data returned: Not satisfied
